assay: gradient 5% acetonitrile 3 min, to 50% in 2 min, to 85% in 15 min, held 3 min, 100 µL/min; settings: column: Zorbax Extend-C18 2.1 x 50 mm; eluents: water / acetonitrile, 0.1% formic acid
measured-metric: RP-LC retention time (s)

| compound | RP-LC retention time [s] |
| --- | --- |
| Cc1cccc2sc(NC(=O)CNC(=O)c3ccc(=O)[nH]c3)nc12 | 613 |
| COc1ccccc1NC(=O)Cn1cnc2onc(C)c2c1=O | 748 |
| Cc1ccc(-c2noc(-c3cccc(S(=O)(=O)NCCCN4CCCCCC4)c3)n2)cc1 | 832 |
| COC(=O)c1c(NCCCc2ccccc2)c2cc(F)ccc2[nH]c1=O | 848 |
| O=C(Nc1ccc(F)c(C(F)(F)F)c1)C1COCC(=O)N1Cc1ccccc1 (stereo not given) | 824 |
| O=C(Nc1ccccn1)C1CCCN(c2ncnc3c2nc2n3CCCCC2)C1 (stereo not given) | 675 |
| Cc1c(C(=O)N2CCCC2)cnn1-c1ncccc1-c1nc(C2CC2)no1 | 706 |
| O=C(NCc1ccc(C(F)(F)F)cc1)c1cn2c(n1)CCCC2 | 646 |
| CCc1cc(C(=O)N2CCN(CC)CC2)nc2cc(-c3cccs3)nn12 | 646 |
| CN1C(=O)c2cccnc2Sc2cc(C(=O)N3CCc4ccccc43)ccc21 | 789 |
